- Tested on: Staphylococcus aureus
- experiment.summary: Antibacterial activity against fluoroquinolone-resistant Staphylococcus aureus 1199B overexpressing NorA after 24 hrs by two fold microdilution method
- Type: functional
endpoint: MIC

1) CCCCCCCCCCCCOc1ccc(B(O)O)cn1 : > 16 µg/mL
2) OB(O)c1ccc(OCCCCCCc2ccccc2)nc1 : > 16 µg/mL
3) OB(O)c1ccc(OCc2ccc(Cl)cc2)nc1 : 128 µg/mL
4) CCCOc1ccc(B(O)O)cn1 : > 128 µg/mL
5) Cc1cc(B(O)O)cnc1OCc1ccccc1 : > 128 µg/mL
6) OB(O)c1ccc(Oc2ccccc2)nc1 : > 128 µg/mL
7) OB(O)c1ccc(OCc2ccc(Cl)c(Cl)c2)nc1 : 16 µg/mL
8) OB(O)c1ccc(OCc2ccc3c(c2)OCO3)nc1 : > 128 µg/mL
9) COc1cc(COc2ccc(B(O)O)cn2)cc(OC)c1OC : > 128 µg/mL
10) OB(O)c1ccc(OCc2ccc(F)cc2)nc1 : > 128 µg/mL
11) OB(O)c1ccc(OCCCCCc2ccccc2)nc1 : 16 µg/mL
12) CCn1cc(C(=O)O)c(=O)c2cc(F)c(N3CCNCC3)cc21 : 64 µg/mL
13) CCCCCCCOc1ccc(B(O)O)cn1 : > 16 µg/mL
